Molecular target: T1, human IL-25 expressed with a C-terminal myc-myc-hexahistidine tag (human)
T1 chain: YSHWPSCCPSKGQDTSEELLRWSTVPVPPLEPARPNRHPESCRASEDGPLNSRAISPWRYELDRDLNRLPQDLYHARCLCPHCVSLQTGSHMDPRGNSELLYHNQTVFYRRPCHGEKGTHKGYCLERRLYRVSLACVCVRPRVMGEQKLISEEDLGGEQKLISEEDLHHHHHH
Test: cell-based or functional assay
experimentalReadout: IC50, luciferase reporter cells, 5 pM hIL-25-MMH (M)
Note: unit M is implicit; provide only the numeric part.

binder="H4H10907P (antibody, human IgG4, V domains shown, H4H prefix = human IgG4 Fc) VH: EVQLVESGGGLVQPGGSLRLSCAASGFTFSNYDIHWVRQVPGKGLEWISTIGSAGDTFYPGSVKGRFTISRENAKNSLYLQMNSLRAGDSAVYYCARGDNWNYVSWFFDLWGRGTLVTVSS VL: DIQLTQSPSFLSTSVGDRVTITCWASQDISSFLAWYQQKPGKAPKLLIYAASVLQSGVPSRFSGSGSGTEFTLTISSLQPEDFATYYCQQVNSYPITFGQGTRLEIK" unitannotation=M valuereported=2.2e-10

Field request: IC50, luciferase reporter cells, 5 pM hIL-25-MMH | item: H4H10901P (antibody, human IgG4, V domains shown, H4H prefix = human IgG4 Fc) VH: QLQLQESGPGLVRPSETLSLTCSVSSGSIRSSNYYWGWIRQPPGKGLEWIGNIYYSGNTFYNPSLKGRVTISVDTSKNQFSLKLSSVTATDTAVYYCARQGYSDYELNWFDPWGQGTLVTVSS VL: DIVMTQSPDSLVLSLGERATFNCKSSQSVLDSSNNKNYLAWYQQKPGQPPKLLIYWASTRESGVPDRFSGSGSGTDFSLTISSLQAEDVALYYCQQFYNSPWTFGQGTKVEIK
5.6e-11

H4H10871P (antibody, human IgG4, V domains shown, H4H prefix = human IgG4 Fc) VH: QVQLVQSGAEVMKPGASVKVSCKSSDFAFTTYGISWVRQAPGQGLEWMGWISAYNGNTNYEQRFQGRITMTTDTSTTTVYMELRSLRSDDTAVYYCARDPDYCSSNTCSDAFDLWGQGTMVTVSS VL: DIQMTQSPSSLSASVRDRVTITCRASQGITNYLAWYQQKPGKVPKVLIYAASTLQSGVPSRFSGSGSGTEFTLAISSLQPEDVATYFCQQYGSAPWTFGQGTKVEIK , same question.
3.2e-10

Hey, just so you know, these numbers are from patent US20160083466A1.
